target: human Plasma Kallikrein (KLKB1) (Homo sapiens (Human)); assay: Inhibition of KLKB1 endpoint assay; details: fluorogenic substrate H-Pro-Phe-Arg-AMC, 1 hr at Room Temperature, read-out: IC50 measurements for the inhibition of human Plasma Kallikrein (KLKB1)
Sequence (P03952 391-638): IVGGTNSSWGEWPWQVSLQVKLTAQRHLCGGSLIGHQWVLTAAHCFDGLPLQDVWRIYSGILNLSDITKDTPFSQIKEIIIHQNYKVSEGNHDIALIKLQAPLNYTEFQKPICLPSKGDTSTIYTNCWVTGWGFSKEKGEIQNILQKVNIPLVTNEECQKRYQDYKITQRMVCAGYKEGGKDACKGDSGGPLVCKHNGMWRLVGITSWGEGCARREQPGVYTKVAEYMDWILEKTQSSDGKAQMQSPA
Sequence (P03952 20-390 partner): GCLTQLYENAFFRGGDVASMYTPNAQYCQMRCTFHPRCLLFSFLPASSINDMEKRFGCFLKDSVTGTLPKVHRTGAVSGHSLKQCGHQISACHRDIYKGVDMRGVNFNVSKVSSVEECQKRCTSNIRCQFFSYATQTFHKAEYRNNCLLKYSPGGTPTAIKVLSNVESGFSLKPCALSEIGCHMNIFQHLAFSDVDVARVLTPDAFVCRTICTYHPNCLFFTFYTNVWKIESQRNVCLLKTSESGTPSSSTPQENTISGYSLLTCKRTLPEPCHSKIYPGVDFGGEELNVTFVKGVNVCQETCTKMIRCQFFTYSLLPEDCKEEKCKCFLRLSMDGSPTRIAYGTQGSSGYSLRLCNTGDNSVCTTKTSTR
REPORTED_ENDPOINT: IC50 (nM)

For orientation, consider the following solved cases.
Nc1nccc2c1CC[C@H]2NC(=O)c1cnn(Cc2ccc(N3C[C@@H]4[C@@H](CO)[C@@H]4C3)nc2)c1 | 38
Cc1cc(Cn2cc(C(=O)N[C@@H]3CCc4nc(N)ccc43)cn2)ccc1CN1CC2CC2C1=O (stereo partly drawn) [Example 66] | 18
Nc1nccc2c1CCC2NC(=O)c1cn(Cc2ccc(CN3C[C@@H]4C[C@@H]4C3=O)cc2)nc1C(F)(F)F (single isomer, unassigned) [Example 50] | 1
Nc1ccc2c(n1)CCC2NC(=O)c1cn(Cc2ccc(CN3CC4CC4C3=O)cc2)nn1 (stereo not drawn) | 410
Cc1cc(N)nc2c1C(NC(=O)c1cnn(Cc3ccc(CN4CC5CC5C4=O)cc3)c1)CC2 (stereo not drawn) | 42

(1) Nc1nccc2c1CCC2NC(=O)c1cnn(Cc2ccc(CN3C[C@@H]4C[C@@H]4C3=O)cc2)c1 (single isomer, unassigned) [Example 48]
(2) Nc1nccc2c1CC[C@H]2NC(=O)c1cnn(Cc2cnc(N3CC4CC4C3)cn2)c1 (stereo partly drawn)
Given the two records 1 and 2 , choose the one whose IC50 value is lower. Reply briefly: the label of your chosen item.
2
(2: 4 nM, 1: 69 nM)
